Assign microsomal CLint at 1 µM to each entry below.
TEST PROTOCOL: Metabolic stability test: liver microsomal stability assay
Format: in vitro ADME, mouse
CONDITION PARAMETERS: male, pH 7.4; mouse liver microsomes 0.5 mg protein/mL, compound 1 µM, presence of NADPH; read-out: Mouse Hepatic Microsome CLh,int NADPH(+)
Method: Under the presence and absence of NADPH, a microsome solution prepared to a concentration of 0.5 mg protein/mL using 100 mM phosphate buffer (pH 7.4) with mouse liver microsomes (male, Corning Incorporated, USA) and the compound at a concentration of 1 µM were subjected to a metabolic reaction for 22 minutes, 44 minutes, or 66 minutes. […]
Positions of bridges follow the written chain, without caps; N, C: chain ends. Non-standard residues stand in square brackets, D forms with d. Residues, ends and D or L forms follow the SMILES beside them. *: point of attachment. NMeF = CN[C@@H](Cc1ccccc1)C(=O)O; hPhe = N[C@@H](CCc1ccccc1)C(=O)O; NMeD = CN[C@@H](CC(=O)O)C(=O)O; NMeL = CN[C@@H](CC(C)C)C(=O)O; NMeV = CN[C@H](C(=O)O)C(C)C; NMeA = CN[C@@H](C)C(=O)O; Piperidide = C1CCN(*)CC1; NBuGly = CCCCNCC(=O)O; Sar = CNCC(=O)O; tBu = CC(C)(C)*
One number for each entry, in µL/min/mg.

- CCCCN1CC(=O)N(C)[C@@H](CC(C)C)C(=O)N[C@@H]([C@@H](C)O)C(=O)N(C)[C@@H](C)C(=O)N2CCC[C@H]2C(=O)N[C@@H](CCc2ccccc2)C(=O)N[C@@H]([C@@H](C)CC)C(=O)N(C)[C@H](C(=O)N2CCCCC2)CC(=O)N(C)[C@@H](CC(C)C)C(=O)N[C@@H](COC(C)(C)C)C(=O)N(C)[C@@H](C(C)C)C(=O)N[C@@H]([C@@H](C)CC)C(=O)N2CCC[C@H]2C(=O)N[C@@H](C(C)C)C1=O [pd087] ([NMeL]S(tBu)[NMeV]IPV[NBuGly][NMeL]T[NMeA]P[hPhe]I[NMeD]-Piperidide; lactam N-14): 31.8

Now look at this entry.
Param item = CC[C@H](C)[C@@H]1NC(=O)[C@@H]2CCCN2C(=O)[C@H](C(C)C)N(C)C(=O)[C@H](CC(C)C)N(C)C(=O)C[C@@H](C(=O)N2CCCCC2)N(C)C(=O)[C@H](CC(C)C)NC(=O)[C@H](CC(C)C)N(C)C(=O)[C@H](C)NC(=O)[C@@H]2CCCN2C(=O)[C@H]([C@@H](C)O)NC(=O)[C@H](CC(C)C)N(C)C(=O)CN(C)C(=O)[C@H](Cc2ccccc2)N(C)C1=O [pd164] ([NMeL][NMeV]PI[NMeF][Sar][NMeL]TPA[NMeL]L[NMeD]-Piperidide; lactam N-13) ; retrieve measured microsomal CLint at 1 µM.
14.6

====

System: Caco-2 cells
TEST PROTOCOL: Membrane permeability test using Caco-2 cells with preincubation
Format: in vitro ADME
CONDITION PARAMETERS: Caco-2 cells, preincubation 20 to 24 hours; apical FaSSIF/HBSS 1% DMSO pH 6.0, basal HBSS 4% BSA pH 7.4; basal sample at 180 minutes
Starred links: 1 amine or outer side, 2 acyl side, 3 side chain; linkers in the order of their positions; H or OH if unused. Positions of bridges follow the written chain, without caps; N, C: chain ends. Non-standard residues stand in square brackets, D forms with d. Residues, ends and D or L forms follow the SMILES beside them. *: point of attachment. NMedβ3hAla = C[C@H](CC(=O)[*:2])N(C)[*:1]; NMeF = CN[C@@H](Cc1ccccc1)C(=O)O; NMeI = CC[C@H](C)[C@H](NC)C(=O)O; NMeT = CN[C@H](C(=O)O)[C@@H](C)O; hPhe = N[C@@H](CCc1ccccc1)C(=O)O; NMeβAla = CN(CCC(=O)[*:2])[*:1]; NMeD = CN[C@@H](CC(=O)O)C(=O)O; NMeL = CN[C@@H](CC(C)C)C(=O)O; NMeV = CN[C@H](C(=O)O)C(C)C; NMeAbu = CC[C@H](NC)C(=O)O; NMeA = CN[C@@H](C)C(=O)O; Piperidide = C1CCN(*)CC1; Abu = CC[C@H](N)C(=O)O; NBuGly = CCCCNCC(=O)O; Sar = CNCC(=O)O; tBu = CC(C)(C)*
QUANTITY NAME: Caco2 Papp (10^-6 cm/sec)

For orientation, consider the following solved cases.
* CC[C@@H]1NC(=O)[C@H](Cc2ccccc2)N(C)C(=O)[C@H](C(C)C)NC(=O)[C@H](COC(C)(C)C)NC(=O)[C@H](C)N(C)C(=O)CN(C)C(=O)[C@H](CC(C)C)NC(=O)[C@@H]2CCCN2C(=O)[C@H](C(C)C)N(C)C(=O)[C@H](C)NC(=O)[C@H](CC)N(C)C(=O)[C@@H](C(C)C)NC(=O)C[C@@H](C(=O)N2CCCCC2)NC(=O)[C@H](C(C)C)N(C)C1=O [pd013] ([dV][NMeAbu]A[NMeV]PL[Sar][NMeA]S(tBu)V[NMeF][Abu][NMeV]D-Piperidide; lactam N-14) | 0.04 10^-6 cm/sec
* CC[C@H](C)[C@@H]1NC(=O)[C@H](CC(C)C)N(C)C(=O)CN(C)C(=O)C[C@@H](C(=O)N2CCCCC2)N(C)C(=O)CNC(=O)[C@H](C)N(C)C(=O)[C@H](C(C)C)N(C)C(=O)[C@H](C)N(C)C(=O)[C@H](Cc2ccccc2)N(C)C(=O)[C@H](CC(C)C)NC(=O)[C@H](Cc2ccccc2)N(C)C(=O)[C@H](C(C)C)NC(=O)[C@H](CC(C)C)N(C)C1=O [pd156] ([Sar][NMeL]I[NMeL]V[NMeF]L[NMeF][NMeA][NMeV][NMeA]G[NMeD]-Piperidide; lactam N-13) | 0.39 10^-6 cm/sec
* CC[C@H]1C(=O)N(C)[C@@H](CC(C)C)C(=O)N2CCC[C@H]2C(=O)N(C)[C@@H](CC)C(=O)N[C@@H](CCc2ccccc2)C(=O)N(C)[C@@H](C)C(=O)N(C)[C@@H](CC)C(=O)N[C@@H](C(C)C)C(=O)N(C)[C@H](C)CC(=O)N(C)CC(=O)N(C)[C@@H](Cc2ccccc2)C(=O)N[C@@H]([C@@H](C)O)C(=O)N(C)[C@@H](CC(C)C)C(=O)N[C@@H](C(C)C)C(=O)N1C [pd073] (cyclo([NMeA][NMeAbu]V[NMedβ3hAla][Sar][NMeF]T[NMeL]V[NMeAbu][NMeL]P[NMeAbu][hPhe])) | <0.12 10^-6 cm/sec
* CC[C@@H]1NC(=O)[C@H]([C@@H](C)O)N(C)C(=O)CCN(C)C(=O)[C@H]([C@@H](C)CC)NC(=O)[C@H](Cc2ccccc2)N(C)C(=O)CN(C)C(=O)C[C@@H](C(=O)N2CCCCC2)NC(=O)[C@H]([C@@H](C)CC)N(C)C(=O)[C@H](COC(C)(C)C)NC(=O)[C@@H]2CCCN2C(=O)[C@H](CCc2ccccc2)NC(=O)[C@H](CC)N(C)C(=O)[C@H](C)NC(=O)[C@H](CC(C)C)N(C)C1=O [pd038] ([Sar][NMeF]I[NMeβAla][NMeT][Abu][NMeL]A[NMeAbu][hPhe]PS(tBu)[NMeI]D-Piperidide; lactam N-14) | 0.04 10^-6 cm/sec
* CCCCN1CC(=O)N(C)[C@@H](CC(C)C)C(=O)N[C@@H]([C@@H](C)O)C(=O)N(C)[C@@H](CC(C)C)C(=O)N2CCC[C@H]2C(=O)N[C@@H](CCc2ccccc2)C(=O)N[C@@H]([C@@H](C)CC)C(=O)N(C)[C@H](C(=O)N2CCCCC2)CC(=O)N(C)[C@@H](CC(C)C)C(=O)N[C@@H](COC(C)(C)C)C(=O)N(C)[C@@H](C(C)C)C(=O)N[C@@H]([C@@H](C)CC)C(=O)N2CCC[C@H]2C1=O [pd159] ([NMeL]S(tBu)[NMeV]IP[NBuGly][NMeL]T[NMeL]P[hPhe]I[NMeD]-Piperidide; lactam N-13) | 0.64 10^-6 cm/sec

Parameter requested: Caco2 Papp (10^-6 cm/sec). Apply to each item below.
1. CC[C@H](C)[C@@H]1NC(=O)[C@H](CC(C)C)N(C)C(=O)CN(C)C(=O)C[C@@H](C(=O)N2CCCCC2)NC(=O)[C@H](C)N(C)C(=O)CNC(=O)[C@H](C(C)C)N(C)C(=O)[C@H](C)N(C)C(=O)[C@H](Cc2ccccc2)N(C)C(=O)[C@H](C(C)C)NC(=O)[C@H](CC(C)C)NC(=O)[C@H](Cc2ccccc2)N(C)C(=O)[C@H]([C@@H](C)O)NC(=O)[C@H](CC(C)C)N(C)C1=O [pd039] ([Sar][NMeL]I[NMeL]T[NMeF]LV[NMeF][NMeA][NMeV]G[NMeA]D-Piperidide; lactam N-14)
2. CC[C@H](C)[C@@H]1NC(=O)[C@H](CC(C)C)N(C)C(=O)[C@H](CC(C)C)N(C)C(=O)[C@H](C)N(C)C(=O)C[C@@H](C(=O)N2CCCCC2)N(C)C(=O)[C@H](C)N(C)C(=O)[C@H](CC(C)C)NC(=O)[C@H](C(C)C)N(C)C(=O)[C@H](CC(C)C)N(C)C(=O)CNC(=O)[C@H]([C@@H](C)CC)N(C)C(=O)[C@H](Cc2ccccc2)N(C)C(=O)[C@H](C)NC(=O)[C@H](Cc2ccccc2)N(C)C1=O [pd084] ([NMeA][NMeL][NMeL]I[NMeF]A[NMeF][NMeI]G[NMeL][NMeV]L[NMeA][NMeD]-Piperidide; lactam N-14)
3. CC[C@H](C)[C@@H]1NC(=O)[C@H](C)NC(=O)[C@H](C(C)C)N(C)C(=O)[C@H](COC(C)(C)C)NC(=O)[C@H](C)N(C)C(=O)C[C@@H](C(=O)N2CCCCC2)NC(=O)[C@H](C(C)C)NC(=O)[C@H](Cc2ccccc2)N(C)C(=O)[C@H](CC(C)C)N(C)C(=O)[C@H]([C@@H](C)O)NC(=O)[C@H](CC)N(C)C(=O)[C@H](Cc2ccccc2)N(C)C(=O)[C@H](C)NC(=O)[C@@H]2CCCN2C1=O [pd025] ([NMeA]S(tBu)[NMeV]AIPA[NMeF][NMeAbu]T[NMeL][NMeF]VD-Piperidide; lactam N-14)

1: 0.03 10^-6 cm/sec; 2: 0.21 10^-6 cm/sec; 3: 0.05 10^-6 cm/sec
